# Tested System: Voltage-dependent L-type calcium channel subunit alpha-1D (Homo sapiens, UniProt Q01668)
# Sequence (Q01668 whole entry): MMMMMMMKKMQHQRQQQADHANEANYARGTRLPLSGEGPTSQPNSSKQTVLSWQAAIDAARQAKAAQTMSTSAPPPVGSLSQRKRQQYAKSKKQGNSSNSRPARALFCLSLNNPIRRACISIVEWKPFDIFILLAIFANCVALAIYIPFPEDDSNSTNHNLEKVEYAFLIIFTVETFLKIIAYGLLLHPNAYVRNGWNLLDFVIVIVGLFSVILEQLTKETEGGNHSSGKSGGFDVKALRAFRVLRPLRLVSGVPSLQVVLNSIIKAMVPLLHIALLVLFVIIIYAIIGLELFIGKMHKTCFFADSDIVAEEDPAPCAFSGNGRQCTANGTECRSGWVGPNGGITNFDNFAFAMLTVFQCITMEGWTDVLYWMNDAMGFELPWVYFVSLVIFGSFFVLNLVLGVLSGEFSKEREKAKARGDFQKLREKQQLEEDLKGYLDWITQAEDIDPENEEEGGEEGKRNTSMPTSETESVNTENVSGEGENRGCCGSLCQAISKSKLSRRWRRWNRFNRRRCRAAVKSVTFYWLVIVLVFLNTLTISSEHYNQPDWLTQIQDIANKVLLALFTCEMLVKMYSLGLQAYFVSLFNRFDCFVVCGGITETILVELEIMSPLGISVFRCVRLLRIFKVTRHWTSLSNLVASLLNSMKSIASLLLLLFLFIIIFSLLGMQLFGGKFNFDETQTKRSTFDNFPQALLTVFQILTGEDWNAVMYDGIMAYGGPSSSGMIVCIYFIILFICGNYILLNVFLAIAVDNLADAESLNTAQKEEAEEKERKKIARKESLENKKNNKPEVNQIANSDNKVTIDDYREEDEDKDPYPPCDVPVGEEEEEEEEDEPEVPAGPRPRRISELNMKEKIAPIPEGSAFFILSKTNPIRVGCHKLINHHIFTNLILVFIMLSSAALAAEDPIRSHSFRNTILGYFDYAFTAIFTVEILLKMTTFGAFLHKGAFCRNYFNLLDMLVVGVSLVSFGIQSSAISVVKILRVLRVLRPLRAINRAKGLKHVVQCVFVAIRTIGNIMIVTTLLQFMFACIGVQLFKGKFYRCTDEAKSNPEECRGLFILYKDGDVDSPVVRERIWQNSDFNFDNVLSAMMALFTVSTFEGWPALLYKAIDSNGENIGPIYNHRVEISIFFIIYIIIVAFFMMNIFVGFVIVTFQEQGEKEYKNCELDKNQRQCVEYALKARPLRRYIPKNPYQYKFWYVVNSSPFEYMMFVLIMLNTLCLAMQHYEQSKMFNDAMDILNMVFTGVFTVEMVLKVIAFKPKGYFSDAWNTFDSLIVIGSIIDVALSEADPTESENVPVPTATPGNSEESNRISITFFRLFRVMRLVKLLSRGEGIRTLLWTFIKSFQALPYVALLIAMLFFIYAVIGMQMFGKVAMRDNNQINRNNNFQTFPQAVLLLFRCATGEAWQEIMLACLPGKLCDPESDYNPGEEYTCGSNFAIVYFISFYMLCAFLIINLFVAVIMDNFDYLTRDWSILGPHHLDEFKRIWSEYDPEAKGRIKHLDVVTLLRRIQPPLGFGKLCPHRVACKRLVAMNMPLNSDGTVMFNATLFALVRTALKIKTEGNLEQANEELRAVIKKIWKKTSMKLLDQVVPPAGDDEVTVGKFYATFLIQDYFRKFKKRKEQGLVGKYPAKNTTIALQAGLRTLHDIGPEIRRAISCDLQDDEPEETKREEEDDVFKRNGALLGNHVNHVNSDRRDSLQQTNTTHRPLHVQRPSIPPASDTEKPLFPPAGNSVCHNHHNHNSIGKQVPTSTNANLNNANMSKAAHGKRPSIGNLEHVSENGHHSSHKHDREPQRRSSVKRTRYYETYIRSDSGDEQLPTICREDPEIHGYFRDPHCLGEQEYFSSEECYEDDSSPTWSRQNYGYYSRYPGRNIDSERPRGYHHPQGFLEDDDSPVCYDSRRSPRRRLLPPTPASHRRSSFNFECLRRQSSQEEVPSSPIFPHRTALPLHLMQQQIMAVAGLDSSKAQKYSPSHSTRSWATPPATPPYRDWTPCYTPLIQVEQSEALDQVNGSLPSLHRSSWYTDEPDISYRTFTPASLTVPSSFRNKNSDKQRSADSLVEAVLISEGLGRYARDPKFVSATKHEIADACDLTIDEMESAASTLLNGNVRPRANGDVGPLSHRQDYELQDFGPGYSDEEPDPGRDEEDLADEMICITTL
# Test: Inhibition of human Cav1.3 channel in human SH-SY5Y cells assessed as 70 mM K+ induced calcium elevation compound treated 15 mins before stimulus by Fluo-4/AM assay
# Format: cell-based
Measured log10 of IC50, listed per entry for reference.
Remember, log10 of IC50, in µM.

| Compound | Value Observed |
| --- | --- |
| CCOC(=O)C1=C(C)NC(c2ccccc2)=CC1c1ccc(C)cc1 (stereo not drawn) | 1.31 |
| CCOC(=O)C1=C(C)NC(c2ccc(Cl)cc2)=CC1c1ccc(Cl)cc1 (stereo not drawn) | 1.45 |
| C=CCOC(=O)C1=C(C)NC(c2ccc(Cl)cc2)=CC1c1ccccc1 (stereo not drawn) | 1.27 |
| CCOC(=O)C1=C(C)NC(c2ccc(Cl)cc2)=CC1c1ccccc1[N+](=O)[O-] (stereo not drawn) | 1.76 |
| CCCC1=C(C(=O)OCC)C(c2ccccc2)C=C(c2ccccc2)N1 (stereo not drawn) | 1.00 |

Quick one: log10 of IC50 of CC1=C(C(=O)SC(C)(C)C)C(c2ccc(Br)cc2)C=C(c2ccc(C)cc2)N1 (stereo not drawn) ?
1.78

Cool, now CC1=C(C(=O)SC(C)(C)C)C(c2ccc(C)cc2)C=C(c2ccccc2)N1 (stereo not drawn)
1.75

* * *

Catalogue of log10 of IC50 readings, one per entry.
# Tested System: Voltage-dependent L-type calcium channel subunit alpha-1D (Homo sapiens, UniProt Q01668)
# Test: Inhibition of human Cav1.3 channel in human SH-SY5Y cells assessed as 70 mM K+ induced calcium elevation compound treated 15 mins before stimulus by Fluo-4/AM assay
Scale type: logarithmic (base 10). Underlying IC50 unit: µM.

Which value of log10 of IC50 has been reported for O=C1CCCC2=C1C(c1ccccc1)C=C(c1ccccc1)N2 (stereo unspecified) in the records?
1.38

CC(=O)C1=C(C)NC(c2ccccc2)=CC1c1ccccc1 (stereo unspecified) , same question.
1.43

Then COc1ccc(C2C=C(c3ccccc3)NC(C)=C2C(=O)SC(C)(C)C)cc1 (stereo unspecified) ?
1.43

* * *

# Tested System: Voltage-dependent L-type calcium channel subunit alpha-1D (Homo sapiens, UniProt Q01668)
# Test: Inhibition of human Cav1.3 channel in human SH-SY5Y cells assessed as 70 mM K+ induced calcium elevation compound treated 15 mins before stimulus by Fluo-4/AM assay
pIC50 by entry:
Keep it numeric: pIC50 is minus log10 of the concentration in mol/L.

Illustrative cases are given below, each with its answer.
| Compound | pIC50 |
| --- | --- |
| CCOC(=O)C1=C(C)NC(c2ccccc2)=CC1c1ccc(OC)cc1 (stereo not drawn) | 4.53 |
| CCOC(=O)C1=C(C)NC(c2ccc(C)cc2)=CC1c1ccccc1[N+](=O)[O-] (stereo not drawn) | 4.36 |
| CC1=C(C(=O)SC(C)(C)C)C(/C(C)=C/c2ccccc2)C=C(c2ccccc2)N1 (stereo not drawn) | 4.20 |
| CC1=C(C(=O)SC(C)(C)C)C(c2ccccc2)C=C(c2ccccc2)N1 (stereo not drawn) | 4.02 |
| CCOC(=O)C1=C(C)NC(c2ccccc2)=CC1c1ccccc1 (stereo not drawn) | 4.73 |
| CCOC(=O)C1=C(C)NC(c2ccccc2)=CC1c1ccc([N+](=O)[O-])cc1 (stereo not drawn) | 4.91 |
| CCOC(=O)C1=C(C)NC(c2ccc(Cl)cc2)=CC1c1ccccc1 (stereo not drawn) | 5.03 |
| CC1(C)CC(=O)C2=C(C1)NC(c1ccccc1)=CC2c1ccccc1 (stereo not drawn) | 5.55 |

Now examine the next entry.
# lookup: pIC50 of CCOC(=O)C1=C(CC)NC(c2ccccc2)=CC1c1ccccc1 (stereo not drawn)
4.89

* * *

# Tested System: Voltage-dependent L-type calcium channel subunit alpha-1D (Homo sapiens, UniProt Q01668)
# Test: Inhibition of human Cav1.3 channel in human SH-SY5Y cells assessed as 70 mM K+ induced calcium elevation compound treated 15 mins before stimulus by Fluo-4/AM assay
Quantity Name: pIC50
Convention used: pIC50 is expressed as -log10 of the molar concentration.

// solved cases for pIC50 follow
| Compound | Quantity Name | Value Observed |
| --- | --- | --- |
| CCOC(=O)C1=C(C)NC(c2ccc(C)cc2)=CC1c1cccs1 (centres undefined) | pIC50 | 4.83 |
| CCOC(=O)C1=C(C)NC(c2ccc(Cl)cc2)=CC1c1cccc(OC)c1 (centres undefined) | pIC50 | 4.82 |

// lookup pIC50 for CCOC(=O)C1=C(C)NC(c2ccco2)=CC1c1ccc(C)cc1 (centres undefined)
4.26
